tested on: K4 kissing-loop RNA reporter; assay: apparent KD of K4 kissing-loop reporter; higher = weaker reporter binding; details: Eterna round: R107; input ligand: arginine 13.2 mM;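 note: bound reporter read as fluorescence of individual clusters on recovered sequencing chips by microscopy, with normalized cluster intensities fitted with a binding model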
Give measured apparent KD of K4 kissing-loop reporter for each item. Keep answers brief.
One number for each entry, in nM.

>  <record sequence>
AAUGAGGACACUUGCAACAGUCCUCGAAUACGAGGACCGGUACGGCCGCCACUCGAUAACUUGCAGUGAUGUUGCAAGUAAGAAU [(T)''-(K)'-(T)'-(T1)-(T2)-(K1)-(K2)_Design2]

>  <apparent KD of K4 kissing-loop reporter, nM>
201

$$$$
>  <record sequence>
AGGUACAAAAGUACCGCUAGAUCCACGGAAGGAGCGCCGGAAACGGCAGGUAGGUCGCCGGGCAGUGAUGUUGCCGGAUCUAGCA [Omei KL Arginine A SS A v4]

>  <apparent KD of K4 kissing-loop reporter, nM>
155

$$$$
>  <record sequence>
GGCCGGCCGGGAAGGAGCGGGAGUGAUGUUUUCGCAAAGAAAGAUAUAAAAGAAACGAAAUCCCAGGUAGGUCGCCCGGCCGGUU

>  <apparent KD of K4 kissing-loop reporter, nM>
113

$$$$

For every listed record, write down its apparent KD of K4 kissing-loop reporter.
1. AUCGUUGCCAUUAGGACAUACGGUCCUGAACGAGGACCGGUACGGCCGCCACUCGAGCACACGAGUGAUGUUCGUGGGCAACGAU [Tryp A SS t1]
2. GUAGACGUACCUUCAGUGAUGUUGAAGGAUACCAGAUGUUAUCACAUCCCUUGGCAGCCUUGGGAUAACAGUGAGUCGGAAUAUG [Essoaran]
3. GCAGUGAUGUUGCUGGUGUGCAGUGGUAGUCGAGGACCGGUACGGCCGCCACUCGGUGAGAACCUGCUAAUACAUCGAUAAGUGA [XVIII]

Result block:
1. 107
2. 142
3. 369

###

test system: MS2 coat protein; test: apparent KD of MS2 coat protein; designed switch direction (-1 OFF switch, 1 ON switch): -1; higher = weaker reporter binding; settings: input ligand: microRNA oligo, concentration not stated
Would you mind classing the entries by apparent KD of MS2 coat protein? Ranges: lower segment = under 20 nM, middle segment = from 20 nM up to 40 nM, upper segment = 40 nM and over

Solved entries:
>  <record sequence>
AAUUAUUAUUGAGGAUAUCGUAUUGAAACAAUAUGAGAAGGCGGGAUAAACAUGAGGAUCACCCAUGUGAGCCUGAUGCUUGUG [Ex NG1 #40] (Eterna round: R96, puzzle: Exclusion NG 1)

>  <target system>
MS2 coat protein

>  <answer label>
lower segment

$$$$
>  <record sequence>
UGAUCUAGCGGAGGAUAUACAUGAGGAUCACCCAUGUAGUAGUCUGUACCGUAGUGCAGACUUGUGUAGAAGGCCGCUAGAUCU [JL ENG2 3.61] (Eterna round: R96, puzzle: Exclusion NG 2)

>  <target system>
MS2 coat protein

>  <answer label>
lower segment

$$$$
>  <record sequence>
GUCUACCAGCUAGGAUAUGCAGUACAUUAAAAUGUAGAAGGAGCACGAUCCAGACAUGAGGAUCACCCAUGUGGGCGGUAGGCA [Aques] (Eterna round: R96, puzzle: Exclusion NG 1)

>  <target system>
MS2 coat protein

>  <answer label>
lower segment

$$$$
>  <record sequence>
GUUGUUUAUGUAGGAUAUGCAAGGCGAACCUAAGCAGAAGGACAUGAGGAUCACCCAUGUAUUGCGGUCUGCGUUCAGAUCGCU [salish99_ExNG1_r4_014] (Eterna round: R96, puzzle: Exclusion NG 1)

>  <target system>
MS2 coat protein

>  <answer label>
lower segment

$$$$
>  <record sequence>
ACAUGAGGAUCACCCAUGUGACCACGAUGGCUGAUGUAAAGACAGGAUAUGUGUGAAUAUCUAUCACAGAAGGGUCUUGACUGG [Deportation 55 - Jieux - Exclusion NG 3] (Eterna round: R96, puzzle: Exclusion NG 3)

>  <target system>
MS2 coat protein

>  <answer label>
middle segment

$$$$
>  <record sequence>
UUUAUUUUGCAAGGAUAUGUUUAAUUUUAGUUUCCUUAAACAUGAGGAUCACCCAUGUUAUACUUACAGAAGGUGCAUAAUUUU [JR_ExcNG2_Sub036] (Eterna round: R96, puzzle: Exclusion NG 2)

>  <target system>
MS2 coat protein

>  <answer label>
upper segment

$$$$

Query block: Consider AACCUGAGGCAAAGCUUUAGGCUUACAUGAGGAUCACCCAUGUAGGAUAUGGUAGGCAAAGCUUACCAGAAGGACAUGGAAAUU [Mat - Exclusion NG 3 - Mod of JL - D24] (Eterna round: R96, puzzle: Exclusion NG 3) . To which apparent KD of MS2 coat protein class does it belong?
Result block: upper segment

Query block: Consider UCAAUUUUGACAGGAUAUAGUUUUUGUUUCUCUCUAGAAGGGUCUGUGUACAUGAGGAUCACCCAUGUUCUUCUUAUUUAUAUU [JR_ExcNG1_Sub014] (Eterna round: R96, puzzle: Exclusion NG 1) . To which apparent KD of MS2 coat protein class does it belong?
Result block: middle segment

Query block: Consider CUGCUCCGUGUAGGAUAUGCCCGCACCACCCGGGCAGAAGGACAUGAGGAUCACCCAUGUAUGUUAUUAUCACGUGUGGCGCGC [Design 39] (Eterna round: R96, puzzle: Exclusion NG 1) . To which apparent KD of MS2 coat protein class does it belong?
Result block: lower segment

Query block: Consider CAUUGUUAUCGAGGAUAUCGUAUUGAGAUUCUACGAGAAGGCGGACUAAACAUGAGGAUCACCCAUGUGAGACGGAUGCUUGGG [Ex NG1 #32] (Eterna round: R96, puzzle: Exclusion NG 1) . To which apparent KD of MS2 coat protein class does it belong?
Result block: middle segment

Query block: Consider CAGUACUGAGGAUAUACAUGAGGAUCACCCAUGUCCCAAAAGUAGGAUACUACUAUUAGUAGAAGGCAGUACUG [Fiskers Ex 3 828 mod 25] (Eterna round: R96, puzzle: Exclusion 3) . To which apparent KD of MS2 coat protein class does it belong?
Result block: upper segment

Query block: Consider CUGUUUUCCGCAGGAUAUGCUCCUCCAUUAUUUGCAGAAGGGCGUUGAACAUGAGGAUCACCCAUGUAUGGAAAUGACUAUUGC [JR_ExcNG1_Sub069] (Eterna round: R96, puzzle: Exclusion NG 1) . To which apparent KD of MS2 coat protein class does it belong?
Result block: lower segment

Query block: Consider CACCGUUAGGGAGGAUAUCGUACAUGAGGAUCACCCAUGUAAUAAAUGAGAAUUUCGGAUGUAUGCGAGAAGGCCCAAAUCGGC [Ostracism 42 - Jieux - Exclusion NG 2] (Eterna round: R96, puzzle: Exclusion NG 2) . To which apparent KD of MS2 coat protein class does it belong?
Result block: middle segment

Data provenance is the supplement of paper PMC9170038.
